assay: Pharmacokinetics in mice, drug levels by mass spectrometry; type: in vivo; conditions: FVB, mouse, plasma; mice, PO, 5 mg/kg single dose, 0.25 hr
Where a name gives a salt, the structure may show the parent alone.
measured-metric: concentration at […]
State the value with its unit after it.

Given item Cc1nccc2c1[nH]c1cc(O)ccc12 [HH, harmol hydrochloride] , the value recorded as its concentration at […] is 6.7 ng/mL

----------
target: endogenous wild-type AR, LAPC4 cells (Homo sapiens, UniProt P10275); construct: that each express endogenous AR; endogenous in cells; host or cells: LAPC4; assay: PSA-luciferase reporter assay in LAPC4 cells with DHT; type: cell-based; conditions: 3 nM DHT
Sequence (P10275 whole entry): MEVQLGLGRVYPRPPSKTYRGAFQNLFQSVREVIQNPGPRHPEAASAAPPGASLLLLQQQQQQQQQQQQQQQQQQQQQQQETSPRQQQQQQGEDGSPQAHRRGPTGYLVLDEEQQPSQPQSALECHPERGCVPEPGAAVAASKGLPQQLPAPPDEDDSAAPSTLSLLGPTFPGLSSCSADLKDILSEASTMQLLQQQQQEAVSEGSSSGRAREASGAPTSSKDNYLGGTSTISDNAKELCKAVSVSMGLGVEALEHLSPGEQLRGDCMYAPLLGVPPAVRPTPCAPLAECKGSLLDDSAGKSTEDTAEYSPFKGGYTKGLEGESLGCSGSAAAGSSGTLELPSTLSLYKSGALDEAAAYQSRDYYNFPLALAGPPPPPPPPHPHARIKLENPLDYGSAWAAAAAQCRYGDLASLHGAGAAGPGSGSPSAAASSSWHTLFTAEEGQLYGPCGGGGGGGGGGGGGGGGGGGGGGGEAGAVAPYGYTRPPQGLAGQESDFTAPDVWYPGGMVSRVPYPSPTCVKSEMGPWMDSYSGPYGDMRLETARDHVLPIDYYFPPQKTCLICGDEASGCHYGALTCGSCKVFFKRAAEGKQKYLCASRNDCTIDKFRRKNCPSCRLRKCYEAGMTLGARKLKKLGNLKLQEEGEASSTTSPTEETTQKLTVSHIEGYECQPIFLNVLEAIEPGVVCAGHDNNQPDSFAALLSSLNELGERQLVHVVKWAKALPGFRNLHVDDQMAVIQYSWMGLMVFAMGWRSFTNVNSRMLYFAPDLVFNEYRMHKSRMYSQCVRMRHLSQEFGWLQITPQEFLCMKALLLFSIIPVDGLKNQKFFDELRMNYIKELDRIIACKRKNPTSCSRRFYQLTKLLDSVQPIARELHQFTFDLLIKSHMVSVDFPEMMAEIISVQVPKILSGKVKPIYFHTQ
Where a name gives a salt, the structure may show the parent alone.
measured-metric: IC50 (nM)
API: value field is a number in nM; no unit string.

These solved cases illustrate the format of a correct answer.
{"columns": ["compound", "experimental-target", "measurement-unit", "endpoint-value"],
 "data": [
  ["O=c1ccc2cc(O[C@@H]3O[C@H](CO)[C@@H](O)[C@H](O)[C@H]3O)c(O)cc2o1 [Esculin]", "endogenous wild-type AR, LAPC4 cells (Homo sapiens, UniProt P10275)", "nM", 831],
  ["Cc1nccc2c1[nH]c1cc(O)ccc12 [HH, harmol hydrochloride]", "endogenous wild-type AR, LAPC4 cells (Homo sapiens, UniProt P10275)", "nM", 106],
  ["COc1cc2ccc(=O)oc2cc1O [Scopoletin]", "endogenous wild-type AR, LAPC4 cells (Homo sapiens, UniProt P10275)", "nM", 1380]
]}

Given item COc1ccc2c(c1)[nH]c1c(C)nccc12 [Harmine] , the value recorded as its IC50 is 80

----------
Entries and their IC50
molecular target: endogenous AR with a mutation (T877A), LNCaP cells (Homo sapiens, UniProt P10275, T878A); construct: that each express endogenous AR; endogenous in cells; host or cells: LNCaP; experiment: PSA-luciferase reporter assay in LNCaP cells with DHT; format: cell-based; conditions: LNCaP cells, 3 nM DHT
Sequence (P10275 whole entry T878A): as the sequence (P10275 whole entry) above, with T878A counted along it
Where a name gives a salt, the structure may show the parent alone.
API: value field is a number in nM; no unit string.

{"columns": ["compound", "measured-metric", "measurement-unit", "endpoint-value"],
 "data": [
  ["COc1ccc2c(c1)[nH]c1c(C)nccc12 [Harmine]", "IC50", "nM", 1560],
  ["COc1ccc2c3c([nH]c2c1)C(C)=NCC3 [Harmaline]", "IC50", "nM", 1190]
]}

Given item COc1cc2ccc(=O)oc2cc1O [Scopoletin] , the value recorded as its IC50 is 604000

Given item O=c1ccc2cc(O[C@@H]3O[C@H](CO)[C@@H](O)[C@H](O)[C@H]3O)c(O)cc2o1 [Esculin] , the value recorded as its IC50 is 62200

Given item Cc1nccc2c1[nH]c1cc(O)ccc12 [HH, harmol hydrochloride] , the value recorded as its IC50 is 127

----------
assay: Pharmacokinetics in mice, drug levels by mass spectrometry; type: in vivo; conditions: FVB, mouse, plasma; mice, IP, 5 mg/kg single dose, 1 hr
Structures can show the parent of a compound that is named as a salt.
measured-metric: concentration at 1 h (ng/mL)
API: value field is a number in ng/mL; no unit string.

Given item Cc1nccc2c1[nH]c1cc(O)ccc12 [HH, harmol hydrochloride] , the value recorded as its concentration at 1 h is 5

----------
assay: Pharmacokinetics in mice, drug levels by mass spectrometry; type: in vivo; conditions: FVB, mouse, plasma; mice, IP, 5 mg/kg single dose, 0.25 hr
Structures can show the parent of a compound that is named as a salt.
measured-metric: concentration at […] (ng/mL)
API: value field is a number in ng/mL; no unit string.

Given item Cc1nccc2c1[nH]c1cc(O)ccc12 [HH, harmol hydrochloride] , the value recorded as its concentration at […] is 32.3
